The values you see were collected from the supplement of paper PMC6555819.

- Test system: LXRb:RXRa (NR concentration 270 nM, RXRa partner concentration 90 nM)
- Procedure text: PBM binding z-score (relative to random genomic background probes); higher = stronger binding; sequences stand for … in GC…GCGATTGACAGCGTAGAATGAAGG
Please go through the items and note down their PBM binding z-score.

GCAGACAGGTGAAACGCAGGTAACTAAGGGTGGC :: -0.289

Give PBM binding z-score for each of the items listed below.
1. TGTCAAAGTTCAAACGTAACGTAAGTATCCACAC
2. ACTAGCAGGCCAAGTTTGGCTCACTCAAACAAAG
3. CCTCGGAGGACAACAGGAGCTCAGAGCTGCCAGA
4. TCATATAGGTAAATGCTGGGTGAAAGTCCGATCT
5. TCATATACGTAAAGGTGAAAGTCGAACGATATGA

Result:
[4.82, -0.722, -0.921, 0.818, 1.44]

====

Please go through the items and note down their PBM binding z-score.
- Tested on: RARa homodimer (NR concentration 270 nM)
- Procedure text: PBM binding z-score (relative to random genomic background probes); higher = stronger binding; sequences stand for … in GC…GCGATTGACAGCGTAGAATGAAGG

Worked cases, PBM binding z-score given:
CCTCGGAGGGCAGAAGGTCAGAGCTGTCCGCTTT :: -0.604
TCAGACAAGTGAAGGTAACTCAGGTACGCAGTCG :: -0.0772
CCTTACGGGTCACTCCAAGTTATAGCATCGGAGT :: 1.47

Give PBM binding z-score for each of the items listed below.
1. ACAGACAGGTGAGTGAAGGTAACGCAGCTGGACG
2. TCATATAGGTAAAAAGTGAAAGTCGGTGTGGTAA
3. CCTACTGGGCCAAGGTGATTGATCAGTCAAAGCA
4. CCAGACAAGTGAGAAGGTAACTCAGCCTCGATTA
5. TCTATTAGTTGAAGGGCAATCGACGAGTCCGTTT
6. ACTAGCAGGCCACGTTTGGGTCACTCAAACAAAG

Result:
-0.195
0.947
-1.01
1.08
0.81
-0.197

====

- Test system: RXRa homodimer (NR concentration 180 nM)
- Procedure text: PBM binding z-score (relative to random genomic background probes); higher = stronger binding; sequences stand for … in GC…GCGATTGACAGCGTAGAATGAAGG
Classify as follows. Reported PBM binding z-score greater than or equal to 2: TRUE. Reported PBM binding z-score below: FALSE.

Worked cases, answers included:
CCTCGGAGGACAACAGGGGGTCAGAGCTGCCAGA :: TRUE
ATATGTAGGTTAGCTGGGGTCATTAAGACTAGGC :: TRUE
TCTCGGAGGACAAGAAGGTCAGAGCTTTCCAGAG :: FALSE
CGAACTAGGTCAAAACAGGACAGTGAAGGATGAT :: TRUE

Request: Textbook exercise: given the entry ATCACTAGGTAACAAGTTCAGTGAAAGAGAGGAC , state whether its PBM binding z-score is greater than or equal to 2.
Result: FALSE

Request: Textbook exercise: given the entry TCTTGTAGATCAAGCAGGTTAAGAGAGCCTGAGT , state whether its PBM binding z-score is greater than or equal to 2.
Result: FALSE

====

- System: LXRb:RXRa (NR concentration 270 nM, RXRa partner concentration 90 nM)
- Procedure text: PBM binding z-score (relative to random genomic background probes); higher = stronger binding; sequences stand for … in GC…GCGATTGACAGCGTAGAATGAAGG
Please go through the items and note down their PBM binding z-score.
One number for each entry.

TAGCCCAGGTCATGGGCCAGTATACCACGCGAAC :: 2.34
TCTATTGGTTGATTAGGGCAACCGAAACAGCGGA :: 0.525
GTACCAAGGTGAATAGATCGTTGATGAGTAGGCG :: -0.113
TAGCCTAGGTCATTGGGCCAGTAAAGTACGCATC :: 2.29
ATATGTAGGTTATCCGGTCATTCAGTTTGCGCAT :: 1.78

Give PBM binding z-score for each of the items listed below.
1. CCTCGGAGGACAGAAGGACAGAGCTGTCCGCTTT
2. AGAATGAGGTTACCAAAGATAAGGGAAACGCTTG
3. CGAACTAGATCATCCAGGACAGTGAATACATTGA
4. ATATGTAAGTTAAGGGTCATTCAGGTTGGTTCGC

Result:
1: -0.942; 2: 1.2; 3: -0.18; 4: 4.11

Give PBM binding z-score for each of the items listed below.
1. GGAACGAGGGCATTCGAGTTGATATCATGGCGAT
2. GCTAGTTGGGCAGTAAAAGGTCACACACCGGTCG
3. GTACCAAGGTGAGTAGGTCGTTGATGAGTAGGCG
4. ATAGACAGGTGATGAAGGTAACTCAGGCTATCAT
5. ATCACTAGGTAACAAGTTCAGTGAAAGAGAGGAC
6. CTCGGAAGGTCGTGCTCAGGTGAGTATACCAAAC
7. AGAACGAGGGCAATGAGTTGCTAGCACGGGTGGC

Result:
[0.289, 3.64, -0.286, -0.324, 0.664, 1.29, -0.476]

Give PBM binding z-score for each of the items listed below.
1. CCTATTAGTTGACCATATGGGCAACCGAAGCTCG
2. CTCGAAAGGTCGGCTGAGGTGAGTATACGGATAA

Result:
1. 0.353
2. 1.86

Give PBM binding z-score for each of the items listed below.
1. CAAACTAGGTCAAAGTTCAAAGTCGAGCCAACCA
2. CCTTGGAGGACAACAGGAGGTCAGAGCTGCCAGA
3. TTACCATGGTGAAAGGTCGTTGATGCACGCCTTG

Result:
1: 5.99; 2: 1.58; 3: 2.22
